Items are presented alongside their recorded efficacy.
Test system: HCT116
protocol-text: efficacy (fitted maximal change in viability relative to DMSO control); higher = less cytotoxic (negative = loss of viability)
measurement-context: 48 h
Expressed in %, but write only the number.

> print(dat)
                                 smiles.str  reported.result
1  O=C(C1CC1)N1CC[C@@H](Cn2c(-c3ccc(-c4ccc5occc5c4)cc3)nc3cnccc32)C1            -66.1
2  O=c1[nH]c2ccccc2n1CCCN1CCC(n2c(=O)[nH]c3cc(Cl)ccc32)CC1              -68
3  C[S+]([O-])(=O)C1=CC=C(C=C1)C/2=C(/C(=O)OC2)C3=CC=CC=C3            -13.7

Here's the next entry for you.
Requested read-out: efficacy. Entry: O=C1c2c(O)cc(O)cc2O[C@H](c2ccc(O)c(O)c2)[C@H]1O
4.75

---

Tested on: HCT116
protocol-text: efficacy (fitted maximal change in viability relative to DMSO control); higher = less cytotoxic (negative = loss of viability)
measurement-context: 48 h
Items are presented alongside their recorded efficacy.
Expressed in %, but write only the number.

> print(dat)
                                   molecule  unit.label  reported.result
1  CC(C)NCC(O)COc1ccc(CCOCC2CC2)cc1 (stereo not drawn)           %            -9.42

Requested read-out: efficacy. Entry: CN1C(=O)\C(=C/C2=C1N=C(NC3CCOCC3)N=C2)OC4=C(F)C=C(F)C=C4
-14.4

Please do the same for CC1OC(OC/2=C(/OC3=C(C(=CC(=C3)O)O)C2=O)C4=CC=C(O)C=C4)C(O)C(OC(C)=O)C1OC(C)=O (stereo not drawn) as well.
6.12

Please do the same for COc1cc2c(NC3CCN(CC4CCCCC4)CC3)nc(N3CCCN(C(C)C)CC3)nc2cc1OCCCN1CCCCC1 as well.
-106

Please do the same for CC(C)(C(=O)NCC(F)(F)C(F)(F)F)C(=O)N[C@@H]1C(=O)Nc2ccccc2-c2ccccc21 as well.
-10.6

Please do the same for OC[C@H]1O[C@H]([C@H](O)[C@@H]1O)N2\C=C/C(=O)NC2=O as well.
-9.88

Please do the same for CCOC(=O)CCNc1cc(N2CCc3ccccc3CC2)nc(-c2ccccn2)n1 as well.
-90.6

Please do the same for COc1ccc2[nH]c([S+]([O-])Cc3ncc(C)c(OC)c3C)nc2n1 (stereo not drawn) as well.
-10.8

---

Test system: HCT116
protocol-text: AC50 cell viability (CellTiter-Glo); higher = less potent
measurement-context: 48 h
measurement-kind: AC50 cell viability (µM)
Expressed in µM, but write only the number.

> print(dat)
                                   compound  reported.result
1  Cc1ccc([S+](=O)([O-])N[C@@H](Cc2ccccc2)C(=O)CCl)cc1 [TPCK]             18.6
2  CC(C)n1ncnc1-c1cn2c(n1)-c1ccc(O[C@@H](C)C(N)=O)cc1OCC2 [GDC-0326]             6.61
3  Nc1ncnc2c1c(-c1cccc(OCc3ccccc3)c1)cn2[C@H]1C[C@H](CN2CCCC2)C1 [ADW-742]             16.6
4  C[N+](C)([O-])CCNc1ccc(NCC[N+](C)(C)[O-])c2c1C(=O)c1c(O)ccc(O)c1C2=O [Banoxantrone]             2.09
5  Cc1cnc(Nc2ccc(N3CCN(C)CC3)cc2)nc1Nc1cccc([S+](=O)([O-])NC(C)(C)C)c1             1.86

Requested read-out: AC50 cell viability. Entry: COC1=C(F)C=C\2C(=C1)\N=C/3NNC(=C3\N=C2C4=CC=CC=C4Cl)/C [R-1530]
14.8

Please do the same for CC(/C=C/C(=O)NO)=C\[C@@H](C)C(=O)c1ccc(N(C)C)cc1 [Trichostatin A] as well.
0.332

Please do the same for Clc1ccc(C(Cn2ccnc2)OCc2ccc(Sc3ccccc3)cc2)c(Cl)c1 (stereo unspecified) [Fenticonazole nitrate] as well.
20.9

Please do the same for CN(Cc1cnc2nc(N)nc(N)c2n1)c1ccc(C(=O)N[C@@H](CCC(=O)O)C(=O)O)cc1 [Methotrexate] as well.
0.118

Please do the same for CN1CCCN(CC1)C2=CC=C3C(=O)\C(=C/4SC5=C(C=CC=C5)N4C3=N2)C(=O)NCC6=CN=C(C)C=N6 [CX-5461] as well.
1.35

Please do the same for COc1ccc(Cn2ccc3ccc(C(=O)NO)cc32)cc1 as well.
16.6

Please do the same for COc1ccc(-c2cc3nccn3c(Nc3ncccc3C(N)=O)n2)cc1OC [BAY61-3606] as well.
4.17

Please do the same for COCCOc1nc(-c2ccc(Cl)c(Cl)c2)n(-c2ccc(NC(=O)CCl)cc2)n1 [MI-2] as well.
18.6

Please do the same for COC1=CC=CC(=C1/C2=N/CC3=C(N=C(NC4=CC(=C(C=C4)C(O)=O)OC)N=C3)C5=CC=C(Cl)C=C25)F [Alisertib] as well.
0.417

Please do the same for OCCCNc1cc(-c2ccnc(Nc3cccc(Cl)c3)n2)ccn1 as well.
0.059

Please do the same for Cc1c[nH]c(-c2cnc(NCCNc3ccc(C#N)cn3)nc2-c2ccc(Cl)cc2Cl)n1 as well.
26.3

// provenance: the supplement of paper PMC10290057
